experiment: Viability of A375 cells after pretreatment, trypan blue exclusion; type: cell-based; conditions: human, A375 melanoma cells, vehicle 94%, read-out: Viable cells after pretreatment
assayEndpoint: viability at 8 h, 10 µM (%)
Numbers only, in %.

[ask] Reported viability at 8 h, 10 µM, compound C1=Nc2ccccc2/C1=C/NNc1nc(Nc2ccccc2)nc(N2CCOCC2)n1 : ____
[reply] 92

* * *

tested on: human foreskin fibroblasts; assay: Proliferation/viability of human foreskin fibroblasts; format: cell-based; settings: Fibroblast; human foreskin fibroblasts; read-out: EC50
assayEndpoint: EC50

In [3]: df
Out[3]:
                                   compound  recordedresult
0  C1=Nc2ccccc2/C1=C/NNc1nc(Nc2ccccc2)nc(N2CCOCC2)n1         > 10 µM

Now look at this entry.
[ask] Reported EC50, compound CCN(CCO)CCCC(C)Nc1ccnc2cc(Cl)ccc12 (centres unmarked) [HCQ, hydroxychloroquine] : ____
[reply] > 10 µM
